The origin of these recorded values is patent US20230233569A1.

Each record here notes measured IC50.
# Assay target: KRAS G12C (Homo sapiens, UniProt P01116+P62937, G12C)
# Sequence (P01116 1-169 isoform P01116-2 G12C): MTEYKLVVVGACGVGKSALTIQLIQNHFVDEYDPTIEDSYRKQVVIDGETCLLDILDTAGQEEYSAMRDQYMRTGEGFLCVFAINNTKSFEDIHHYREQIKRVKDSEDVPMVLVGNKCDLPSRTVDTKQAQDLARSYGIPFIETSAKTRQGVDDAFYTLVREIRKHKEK
# Sequence (P62937 whole entry): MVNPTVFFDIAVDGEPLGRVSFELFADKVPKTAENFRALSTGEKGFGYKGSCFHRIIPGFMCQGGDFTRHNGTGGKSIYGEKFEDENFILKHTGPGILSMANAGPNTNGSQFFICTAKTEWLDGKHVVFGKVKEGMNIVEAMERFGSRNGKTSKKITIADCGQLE
# Assay details: Disruption of BRAF RBD interaction with Ras (FRET / MOA assay, with Cyclophilin A)
# Type: biochemical
# Recorded conditions: read-out: KRAS G12C FRET data, IC50

## Input So what's the measured IC50 for this one? CCn1c(-c2cccnc2[C@H](C)OC)c2c3cc(ccc31)-c1csc(n1)C[C@H](NC(=O)[C@H](C(C)C)N(C)C(=O)N1CC[C@@H](N(C)C)C1)C(=O)N1CCC[C@H](N1)C(=O)OCC(C)(C)C2 (atropisomer, axis not shown)
## Output 0.1 to 1 µM

* * *

# Assay target: KRAS G13C (Homo sapiens, UniProt P01116+P62937, G13C)
# Sequence (P01116 1-169 isoform P01116-2 G13C limits assumed): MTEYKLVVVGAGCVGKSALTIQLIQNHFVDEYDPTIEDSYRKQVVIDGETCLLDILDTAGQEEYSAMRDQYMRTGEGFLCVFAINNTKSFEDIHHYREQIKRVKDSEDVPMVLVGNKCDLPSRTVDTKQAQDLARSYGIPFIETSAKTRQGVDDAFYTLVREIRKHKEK
# Sequence (P62937 whole entry): as the sequence (P62937 whole entry) above
# Assay details: Ras-Raf disruption / FRET / MOA assay (BRAF RBD)
# Format: biochemical
# Recorded conditions: Ras-Raf disruption, with Cyclophilin A; read-out: KRAS G13C FRET data IC50
pIC50: −log10 of the molar value.
Measured pIC50 by item

Compound	Experimental result
CCn1c(-c2cccnc2[C@H](C)OC)c2c3cc(ccc31)-c1cc(O)cc(c1)C[C@H](NC(=O)[C@H](C(C)C)N(C)C(=O)[C@H]1C[C@H]3CC[C@@H](C1)N3C(=O)[C@@H]1CN1)C(=O)N1CCC[C@H](N1)C(=O)OCC(C)(C)C2 (atropisomer, axis not shown)	7.00 to 8.00

## Input So what's the measured pIC50 for this one? "CCn1c(-c2cccnc2[C@H](C)OC)c2c3cc(ccc31)-c1cc(cc(C(F)F)c1)C[C@H](NC(=O)[C@H](C1CCCC1)N1CC[C@]3(CCN(C(=O)[C@@H]4N[C@@H]4C4CC4)C3)C1)C(=O)N1CCC[C@H](N1)C(=O)OCC(C)(C)C2"
## Output 6.00 to 7.00

## Input Item CCn1c(-c2cccnc2[C@H](C)OC)c2c3cc(ccc31)-c1cc(O)cc(c1)C[C@H](NC(=O)[C@H](C(C)C)N(C)C(=O)[C@H]1CCN(S(=O)(=O)[C@@H]3CN3C)C1)C(=O)N1CCC[C@H](N1)C(=O)OCC(C)(C)C2 (single isomer, unassigned) has what recorded pIC50?
## Output 7.00 to 8.00

## Input Give the measured pIC50 of "CCn1c(-c2cccnc2[C@H](C)OC)c2c3cc(ccc31)-c1cccc(c1)C[C@H](NC(=O)[C@H](C(C)C)N(C)C(=O)[C@H]1CCN(C(=O)[C@H]3CN3)C1)C(=O)N1CCC[C@H](N1)C(=O)OCC(C)(C)C2" .
## Output 6.00 to 7.00

* * *

Recorded IC50 by entry
# Assay target: KRAS WT (Homo sapiens, UniProt P01116+P62937)
# Sequence (P01116 1-169 isoform P01116-2 limits assumed): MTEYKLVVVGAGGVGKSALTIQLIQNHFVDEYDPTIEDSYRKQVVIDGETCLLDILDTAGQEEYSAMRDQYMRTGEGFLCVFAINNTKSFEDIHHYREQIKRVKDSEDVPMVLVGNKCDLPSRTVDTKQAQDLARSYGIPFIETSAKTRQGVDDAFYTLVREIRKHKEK
# Sequence (P62937 whole entry): as the sequence (P62937 whole entry) above
# Assay details: Disruption of BRAF RBD interaction with Ras (FRET / MOA assay, with Cyclophilin A)
# Type: biochemical
# Recorded conditions: KRAS WT; read-out: KRAS WT FRET data IC50

Molecule	Assay target	Experimental result
CCn1c(-c2cnccc2[C@H](C)OC)c2c3cc(ccc31)-c1cc(O)cc(c1)C[C@H](NC(=O)[C@H](C(C)C)N(C)C(C)=O)C(=O)N1CCC[C@H](N1)C(=O)OCC(C)(C)C2 [Example A21]	KRAS WT (Homo sapiens, UniProt P01116+P62937)	100 to 1000 nM

Let's switch to this molecule now.
## Input Need IC50, item CCn1c(-c2cccnc2[C@H](C)OC)c2c3cc(ccc31)-c1csc(n1)C[C@H](NC(=O)[C@H](C(C)C)N(C)C(=O)N1CCC13CCOCC3)C(=O)N1CCC[C@H](N1)C(=O)OCC(C)(C)C2 (atropisomer, axis not shown) [Example A601]
## Output 100 to 1000 nM

* * *

# Tested on: NCI-H358 (K-Ras G12C)
# Assay details: CellTiter-Glo cell viability assay, 5-day treatment
# Format: cell-based
# Recorded conditions: Homo sapiens, NCI-H358, 120 h, 5-day treatment; read-out: H358 Cell Viability assay data (K-Ras G12C, IC50)
pIC50: −log10 of the molar value.
Measured pIC50, listed per entry for reference.

The following compounds have reported results that may help.
Compound	pIC50
CCn1c(-c2cccnc2[C@H](C)OC)c2c3cc(ccc31)-c1cc(O)cc(c1)C[C@H](NC(=O)[C@H](C(C)C)N(C)C(=O)[C@H]1CCN(C(=O)[C@@H]3CCCN3C)C1)C(=O)N1CCC[C@H](N1)C(=O)OCC(C)(C)C2	6.00 to 7.00
CCn1c(-c2cccnc2[C@H](C)OC)c2c3cc(ccc31)-c1csc(n1)C[C@H](NC(=O)[C@H](C(C)C)N(C)C(=O)N1CC3CCN(C)CC31)C(=O)N1CCC[C@H](N1)C(=O)OCC(C)(C)C2 (stereo partly drawn)	6.00 to 7.00
CCn1c(-c2cccnc2[C@H](C)OC)c2c3cc(ccc31)-c1csc(n1)C[C@H](NC(=O)[C@H](C(C)C)N(C)C(=O)N1C3CC1CN(C)C3)C(=O)N1CCC[C@H](N1)C(=O)OCC(C)(C)C2	7.00 to 8.00
CCn1c(-c2cccnc2[C@H](C)OC)c2c3cc(ccc31)-c1cc(O)cc(c1)C[C@H](NC(=O)[C@H](C(C)C)N(C)C(=O)[C@H]1C[C@@H]1C)C(=O)N1CCC[C@H](N1)C(=O)OCC(C)(C)C2	6.00 to 7.00
CCn1c(-c2cccnc2[C@H](C)OC)c2c3cc(ccc31)-c1csc(n1)C[C@H](NC(=O)[C@H](C(C)C)N(C)C(=O)N1CCN(C(=O)CO)CC1)C(=O)N1CCC[C@H](N1)C(=O)OCC(C)(C)C2 (atropisomer, axis not shown)	> 8.00

## Input Form field: pIC50 recorded for CCn1c(-c2cccnc2[C@H](C)OC)c2c3cc(ccc31)-c1csc(n1)C[C@H](NC(=O)[C@H](C(C)C)N(C)C(=O)N1CC3(CC(N(C)C)C3)C1)C(=O)N1CCC[C@H](N1)C(=O)OCC(C)(C)C2 (atropisomer, axis not shown) with NCI-H358 (K-Ras G12C) (enter value)
## Output 7.00 to 8.00

## Input Field: pIC50 (NCI-H358 (K-Ras G12C)). Entry: CCn1c(-c2cccnc2[C@H](C)OC)c2c3cc(ccc31)-c1csc(n1)C[C@H](NC(=O)[C@H](C(C)C)N(C)C(=O)N1CCC(N(C)C)CC1)C(=O)N1CCC[C@H](N1)C(=O)OCC(C)(C)C2 (atropisomer, axis not shown)
## Output 7.00 to 8.00

## Input Test system NCI-H358 (K-Ras G12C); read-out pIC50; what value for CCn1c(-c2cccnc2[C@H](C)OC)c2c3cc(ccc31)-c1cc(O)cc(c1)C[C@H](NC(=O)[C@H](C(C)C)N(C)C(=O)C1CC13CC3)C(=O)N1CCC[C@H](N1)C(=O)OCC(C)(C)C2 (stereo partly drawn) ?
## Output 7.00 to 8.00

## Input Item: "CCn1c(-c2cccnc2[C@H](C)OC)c2c3cc(ccc31)-c1csc(n1)C[C@H](NC(=O)[C@H](C(C)C)N(C)C(=O)N1CCC[C@H]1CN(C)C)C(=O)N1CCC[C@H](N1)C(=O)OCC(C)(C)C2" Test system: NCI-H358 (K-Ras G12C) Read-out: pIC50 Value: ?
## Output 5.00 to 6.00

* * *

Catalogue of IC50 readings, one per entry.
# Assay target: KRAS G12C (Homo sapiens, UniProt P01116+P62937, G12C)
# Assay details: Disruption of BRAF RBD interaction with Ras (FRET / MOA assay, with Cyclophilin A)
# Type: biochemical
# Recorded conditions: KRAS G12C; read-out: KRAS G12C FRET data IC50
# Description: This protocol may also be executed substituting other Ras proteins or nucleotides. The purpose of this biochemical assay was to measure the ability of test compounds to facilitate ternary complex formation between a nucleotide-loaded K-Ras isoform and Cyclophilin A; the resulting ternary complex disrupts binding to a BRAF^RBD construct, inhibiting K-Ras signaling through a RAF effector. Data is reported as IC50 values. […]

Compound	IC50
CCn1c(-c2cccnc2[C@H](C)OC)c2c3cc(ccc31)-c1csc(n1)C[C@H](NC(=O)[C@H](C(C)C)N(C)C(=O)[C@H]1CCN(C(=O)/C=C/CN(C)C)C1)C(=O)N1CCC[C@H](N1)C(=O)OCC(C)(C)C2	100 to 1000 nM

## Input Find IC50 (KRAS G12C (Homo sapiens, UniProt P01116+P62937, G12C)) for the entry "C=CC(=O)N1CC[C@H](C(=O)N(C)[C@H](C(=O)N[C@H]2Cc3cc(O)cc(c3)-c3ccc4c(c3)c(c(-c3cncc(CN(C)C)c3)n4CC)CC(C)(C)COC(=O)[C@@H]3CCCN(N3)C2=O)C(C)C)C1"
## Output 100 to 1000 nM
